These entries and their values trace back to ChEMBL document CHEMBL3046217.

Tested on: Enterococcus faecalis
Assay: Antimicrobial activity against Enterococcus faecalis ATCC 29212 after 24 hr by agar diffusion method
Type: functional
Details: Enterococcus faecalis, ATCC 29212, 24 h
Here, each record is paired with measured MIC data.
Report the figure in µg/mL without appending any unit label.

COMPOUND	ASSAYED_SYSTEM	MIC [µg/mL]
C(=N/Nc1nc2nc3ccccc3nc2s1)/c1cn(-c2ccccc2)nc1-c1cccs1	Enterococcus faecalis	167

Let us examine a further case.
Lab note: need MIC with Enterococcus faecalis for entry Cc1ccc(NC(=S)N2N=C(c3ccc(Cl)cc3)CC2c2cn(-c3ccccc3)nc2-c2cccs2)cc1 (stereo unspecified) , please look it up.
167

----------
System: Salmonella typhi
Test: Antimicrobial activity against Salmonella enterica subsp. enterica serovar Typhi after 24 hr by agar diffusion method
Format: functional
Calls of active or inactive are those of the source. The rule behind the calls is not given here.
REPORTED_ENDPOINT: inhibition zone (IZ)

COMPOUND	inhibition zone (IZ)
O=C(O)c1cn(C2CC2)c2cc(N3CCNCC3)c(F)cc2c1=O [CIPROFLOXACIN]	21 mm
CC(=O)N1CCN(c2ccc(OCC3COC(Cn4ccnc4)(c4ccc(Cl)cc4Cl)O3)cc2)CC1 (racemic) [KETOCONAZOLE]	inactive
O=C(/C=C/c1cn(-c2ccccc2)nc1-c1cccs1)c1ccc(Cl)cc1	24 mm
C(=N/Nc1nc2nc3ccccc3nc2s1)/c1cn(-c2ccccc2)nc1-c1cccs1	inactive
NC(=S)N/N=C\c1cn(-c2ccccc2)nc1-c1cccs1	28 mm
Clc1ccc(C2=NNC(c3cn(-c4ccccc4)nc3-c3cccs3)C2)cc1 (centres undefined)	inactive

Fill blank: measured inhibition zone (IZ) of the compound C(=N/Nc1nc(-c2cc3ccccc3o2)cs1)/c1cn(-c2ccccc2)nc1-c1cccs1 is ____.
inactive

Fill blank: measured inhibition zone (IZ) of the compound N/C(=N/N=C\c1cn(-c2ccccc2)nc1-c1cccs1)SCC(=O)Nc1cccs1 is ____.
inactive

Fill blank: measured inhibition zone (IZ) of the compound Cc1ccc(NC(=S)N2N=C(c3ccc(Cl)cc3)CC2c2cn(-c3ccccc3)nc2-c2cccs2)cc1 (centres undefined) is ____.
inactive

----------
Tested on: Pseudomonas aeruginosa
Assay: Antimicrobial activity against Pseudomonas aeruginosa ATCC 29953 after 24 hr by agar diffusion method
Type: functional
Details: Pseudomonas aeruginosa, ATCC 29953, 24 h
REPORTED_ENDPOINT: MIC
A complete answer gives the number and then names the unit.

COMPOUND	MIC
O=C(/C=C/c1cn(-c2ccccc2)nc1-c1cccs1)c1ccc(Cl)cc1	333 µg/mL
Clc1ccc(C2=NNC(c3cn(-c4ccccc4)nc3-c3cccs3)C2)cc1 (centres undefined)	167 µg/mL
C(=N/Nc1nc2nc3ccccc3nc2s1)/c1cn(-c2ccccc2)nc1-c1cccs1	41.6 µg/mL

Fill blank: measured MIC of the compound Cc1nc(N/N=C\c2cn(-c3ccccc3)nc2-c2cccs2)sc1/N=N/c1ccc(F)cc1 is ____.
333 µg/mL

----------
System: Staphylococcus aureus
Experiment: Antimicrobial activity against Staphylococcus aureus ATCC 29213 after 24 hr by agar diffusion method
Format: functional
Details: Staphylococcus aureus, ATCC 29213, 24 h
Here, each record is paired with measured MIC data.
Report the figure in µg/mL without appending any unit label.

COMPOUND	MIC / µg/mL
C(=N/Nc1nc(-c2cc3ccccc3o2)cs1)/c1cn(-c2ccccc2)nc1-c1cccs1	167

Lab note: need MIC with Staphylococcus aureus for entry Clc1ccc(C2=NNC(c3cn(-c4ccccc4)nc3-c3cccs3)C2)cc1 (stereo not drawn) , please look it up.
333

Lab note: need MIC with Staphylococcus aureus for entry Cc1nc(N/N=C\c2cn(-c3ccccc3)nc2-c2cccs2)sc1/N=N/c1ccc(F)cc1 , please look it up.
41.8

----------
Test system: Bacillus spizizenii
Assay: Antimicrobial activity against Bacillus subtilis subsp. spizizenii ATCC 6633 after 24 hr by agar diffusion method; note: test concentration or dose not given here
Assay type: functional
REPORTED_ENDPOINT: inhibition zone (IZ) (mm)
Report the figure in mm without appending any unit label.

See these solved cases before continuing.
MOL_SMILES	REPORTED_ENDPOINT	READING
N/C(=N/N=C\c1cn(-c2ccccc2)nc1-c1cccs1)SCC(=O)Nc1cccs1	inhibition zone (IZ)	23
O=c1oc2ccccc2cc1-c1csc(N/N=C\c2cn(-c3ccccc3)nc2-c2cccs2)n1	inhibition zone (IZ)	21

Let us examine a further case.
Lab note: need inhibition zone (IZ) with Bacillus spizizenii for entry C(=N/Nc1nc2nc3ccccc3nc2s1)/c1cn(-c2ccccc2)nc1-c1cccs1 , please look it up.
26

----------
System: Enterobacter cloacae
Experiment: Antimicrobial activity against Enterobacter cloacae ATCC 3047 after 24 hr by agar diffusion method; for IZ: test concentration or dose not given here
Assay type: functional
REPORTED_ENDPOINT: inhibition zone (IZ)

See these solved cases before continuing.
COMPOUND	inhibition zone (IZ)
C(=N/Nc1nc(-c2cc3ccccc3o2)cs1)/c1cn(-c2ccccc2)nc1-c1cccs1	15 mm
Clc1ccc(C2=NNC(c3cn(-c4ccccc4)nc3-c3cccs3)C2)cc1 (stereo unspecified)	21 mm
Cc1nc(N/N=C\c2cn(-c3ccccc3)nc2-c2cccs2)sc1/N=N/c1ccc(F)cc1	26 mm
NC(=S)N/N=C\c1cn(-c2ccccc2)nc1-c1cccs1	26 mm
C(=N/Nc1nc2nc3ccccc3nc2s1)/c1cn(-c2ccccc2)nc1-c1cccs1	18 mm

Fill blank: measured inhibition zone (IZ) of the compound O=C(/C=C/c1cn(-c2ccccc2)nc1-c1cccs1)c1ccc(Cl)cc1 is ____.
24 mm

Fill blank: measured inhibition zone (IZ) of the compound O=c1oc2ccccc2cc1-c1csc(N/N=C\c2cn(-c3ccccc3)nc2-c2cccs2)n1 is ____.
14 mm

Fill blank: measured inhibition zone (IZ) of the compound O=C1CS/C(=N\N=C/c2cn(-c3ccccc3)nc2-c2cccs2)N1 is ____.
13 mm

Fill blank: measured inhibition zone (IZ) of the compound Cc1ccc(NC(=S)N2N=C(c3ccc(Cl)cc3)CC2c2cn(-c3ccccc3)nc2-c2cccs2)cc1 (stereo unspecified) is ____.
16 mm

Fill blank: measured inhibition zone (IZ) of the compound N/C(=N/N=C\c1cn(-c2ccccc2)nc1-c1cccs1)SCC(=O)Nc1cccs1 is ____.
28 mm

----------
Tested on: Staphylococcus aureus
Test: Antimicrobial activity against Staphylococcus aureus ATCC 29213 after 24 hr by agar diffusion method; for IZ: test concentration or dose not given here
Assay type: functional
REPORTED_ENDPOINT: inhibition zone (IZ)

See these solved cases before continuing.
COMPOUND	inhibition zone (IZ)
O=C(/C=C/c1cn(-c2ccccc2)nc1-c1cccs1)c1ccc(Cl)cc1	21 mm
N/C(=N/N=C\c1cn(-c2ccccc2)nc1-c1cccs1)SCC(=O)Nc1cccs1	28 mm
O=C1CS/C(=N\N=C/c2cn(-c3ccccc3)nc2-c2cccs2)N1	29 mm
C(=N/Nc1nc(-c2cc3ccccc3o2)cs1)/c1cn(-c2ccccc2)nc1-c1cccs1	21 mm
Cc1nc(N/N=C\c2cn(-c3ccccc3)nc2-c2cccs2)sc1/N=N/c1ccc(F)cc1	21 mm

Lab note: need inhibition zone (IZ) with Staphylococcus aureus for entry O=c1oc2ccccc2cc1-c1csc(N/N=C\c2cn(-c3ccccc3)nc2-c2cccs2)n1 , please look it up.
11 mm

Lab note: need inhibition zone (IZ) with Staphylococcus aureus for entry Clc1ccc(C2=NNC(c3cn(-c4ccccc4)nc3-c3cccs3)C2)cc1 (stereo unspecified) , please look it up.
20 mm

Lab note: need inhibition zone (IZ) with Staphylococcus aureus for entry C(=N/Nc1nc2nc3ccccc3nc2s1)/c1cn(-c2ccccc2)nc1-c1cccs1 , please look it up.
21 mm

Lab note: need inhibition zone (IZ) with Staphylococcus aureus for entry Cc1ccc(NC(=S)N2N=C(c3ccc(Cl)cc3)CC2c2cn(-c3ccccc3)nc2-c2cccs2)cc1 (stereo unspecified) , please look it up.
15 mm

Lab note: need inhibition zone (IZ) with Staphylococcus aureus for entry NC(=S)N/N=C\c1cn(-c2ccccc2)nc1-c1cccs1 , please look it up.
21 mm

----------
System: Enterobacter cloacae
Assay: Antimicrobial activity against Enterobacter cloacae ATCC 3047 after 24 hr by agar diffusion method
Type: functional
Conditions: Enterobacter cloacae, ATCC 3047, 24 h
REPORTED_ENDPOINT: MIC (µg/mL)
Report the figure in µg/mL without appending any unit label.

See these solved cases before continuing.
MOLECULE	REPORTED_ENDPOINT	VALUE_UNITS	READING
Cc1nc(N/N=C\c2cn(-c3ccccc3)nc2-c2cccs2)sc1/N=N/c1ccc(F)cc1	MIC	µg/mL	41.6
N/C(=N/N=C\c1cn(-c2ccccc2)nc1-c1cccs1)SCC(=O)Nc1cccs1	MIC	µg/mL	20.8
NC(=S)N/N=C\c1cn(-c2ccccc2)nc1-c1cccs1	MIC	µg/mL	20.8
Clc1ccc(C2=NNC(c3cn(-c4ccccc4)nc3-c3cccs3)C2)cc1 (stereo unspecified)	MIC	µg/mL	83.3
C(=N/Nc1nc2nc3ccccc3nc2s1)/c1cn(-c2ccccc2)nc1-c1cccs1	MIC	µg/mL	333

Fill blank: measured MIC of the molecule O=C(/C=C/c1cn(-c2ccccc2)nc1-c1cccs1)c1ccc(Cl)cc1 is ____.
41.6
